Overview of recorded N-term IgG for various molecules
Biological target: T1, B3GNT2 (Homo sapiens, UniProt Q9NY97)
T1 construct: The respective ORFs of candidate genes [CD274 (NM_014143), MCL1 (NM_021960), JUNB (NM_002229), and B3GNT2 (NM_006577)] were synthesized; expressed in transfected cells; host or cells: A375 melanoma cells (lentiviral ORF overexpression)
T1 sequence (Q9NY97 1-397): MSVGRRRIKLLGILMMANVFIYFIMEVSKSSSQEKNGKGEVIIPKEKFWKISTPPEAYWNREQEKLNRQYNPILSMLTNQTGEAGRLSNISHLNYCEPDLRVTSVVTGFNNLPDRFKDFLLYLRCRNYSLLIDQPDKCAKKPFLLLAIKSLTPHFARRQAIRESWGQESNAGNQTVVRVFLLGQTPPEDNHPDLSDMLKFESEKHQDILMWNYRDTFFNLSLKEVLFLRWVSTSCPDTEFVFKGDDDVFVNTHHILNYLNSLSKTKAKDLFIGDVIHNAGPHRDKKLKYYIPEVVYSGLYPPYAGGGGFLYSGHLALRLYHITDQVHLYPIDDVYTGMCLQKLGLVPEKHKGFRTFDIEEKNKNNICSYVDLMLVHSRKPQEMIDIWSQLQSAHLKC
Assay: Co-IP of FLAG-tagged B3GNT2 followed by mass spectrometry
Type: cell-based
Conditions: Co-IP with IgG control antibody, N-terminally FLAG-tagged B3GNT2; mass spectrometry count, unit not given

{"molecule": "PRR4 (protein) QSTDNDVNYEDFTFTIPDVEDSSQRPDQGPQRPPPEGLLPRPPGDSGNQDDGPQQRPPKPGGHHRHPPPPPFQNQQRPPRRGHRQLSLPRFPSVSLQEASSFFQRDRPARHPQEQPLW", "N-term IgG": 0}
{"molecule": "FAM3A (protein) FPRIQQLFTSPESSVTAAPRARKYKCGLPQPCPEEHLAFRVVSGAANVIGPKICLEDKMLMSSVKDNVGRGLNIALVNGVSGELIEARAFDMWAGDVNDLLKFIRPLHEGTLVFVASYDDPATKMNEETRKLFSELGSRNAKELAFRDSWVFVGAKGVQNKSPFEQHVKNSKHSNKYEGWPEALEMEGCIPRRSTAS", "N-term IgG": 0}
{"molecule": "ERP44 (protein) EITSLDTENIDEILNNADVALVNFYADWCRFSQMLHPIFEEASDVIKEEFPNENQVVFARVDCDQHSDIAQRYRISKYPTLKLFRNGMMMKREYRGQRSVKALADYIRQQKSDPIQEIRDLAEITTLDRSKRNIIGYFEQKDSDNYRVFERVANILHDDCAFLSAFGDVSKPERYSGDNIIYKPPGHSAPDMVYLGAMTNFDVTYNWIQDKCVPLVREITFENGEELTEEGLPFLILFHMKEDTESLEIFQNEVARQLISEKGTINFLHADCDKFRHPLLHIQKTPADCPVIAIDSFRHMYVFGDFKDVLIPGKLKQFVFDLHSGKLHREFHHGPDPTDTAPGEQAQDVASSPPESSFQKLAPSEYRYTLLRDRDEL", "N-term IgG": 0}
{"molecule": "SSR1 (protein) VLFRGGPRGLLAVAQDLTEDEETVEDSIIEDEDDEAEVEEDEPTDLVEDKEEEDVSGEPEASPSADTTILFVKGEDFPANNIVKFLVGFTNKGTEDFIVESLDASFRYPQDYQFYIQNFTALPLNTVVPPQRQATFEYSFIPAEPMGGRPFGLVINLNYKDLNGNVFQDAVFNQTVTVIEREDGLDGETIFMYMFLAGLGLLVIVGLHQLLESRKRKRPIQKVEMGTSSQNDVDMSWIPQETLNQINKASPRRLPRKRAQKRSVGSDE", "N-term IgG": 0}
{"molecule": "CHCHD6 (protein) GSTESSEGRRVSFGVDEEERVRVLQGVRLSENVVNRMKEPSSPPPAPTSSTFGLQDGNLRAPHKESTLPRSGSSGGQQPSGMKEGVKRYEQEHAAIQDKLFQVAKREREAATKHSKASLPTGEGSISHEEQKSVRLARELESREAELRRRDTFYKEQLERIERKNAEMYKLSSEQFHEAASKMESTIKPRRVEPVCSGLQAQILHCYRDRPHEVLLCSDLVKAYQRCVSAAHKG", "N-term IgG": 0}

The origin of these recorded values is patent US20240261333A1.
